target: EphrinB2-EphB1 (Homo sapiens, UniProt P54762); construct: soluble human EphB1-His, EphB2-His, and EphB4-His ectodomains; commercially available human EphrinB1-Fc (EB1), EphrinB2-Fc (EB2), and EphrinB3-Fc (EB3) ectodomain proteins; purchased; assay: Octet, immobilized human EphrinB2 binding to 50 nM soluble human EphB1; details: Table B, EphrinB2-EphB1; read-out: Absolute AUC/IC50
Sequence (P54762 18-540 limits assumed): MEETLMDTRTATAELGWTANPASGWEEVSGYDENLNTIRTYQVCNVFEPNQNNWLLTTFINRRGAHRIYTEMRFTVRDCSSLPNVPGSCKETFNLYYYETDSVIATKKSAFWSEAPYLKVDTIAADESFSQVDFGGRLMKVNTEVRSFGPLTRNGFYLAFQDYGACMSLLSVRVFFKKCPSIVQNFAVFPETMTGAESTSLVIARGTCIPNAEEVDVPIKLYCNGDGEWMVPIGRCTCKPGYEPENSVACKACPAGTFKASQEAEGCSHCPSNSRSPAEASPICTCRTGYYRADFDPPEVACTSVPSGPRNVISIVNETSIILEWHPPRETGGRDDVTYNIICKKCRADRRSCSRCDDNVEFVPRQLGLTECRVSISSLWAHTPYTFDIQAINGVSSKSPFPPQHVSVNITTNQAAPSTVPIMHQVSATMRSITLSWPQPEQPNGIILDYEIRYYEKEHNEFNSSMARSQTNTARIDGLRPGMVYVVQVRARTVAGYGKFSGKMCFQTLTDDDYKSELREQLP
pIC50: −log10 of the molar value.
property.measured: pIC50

[[record]]
smiles_input = "Oc1c(Br)cc(CN2CCN(c3ccc(Br)cc3)CC2)c2cccnc12"
data_value = 6.80


###

Molecular target: EphrinB2-EphB2 (Homo sapiens, UniProt P29323)
Construct: soluble human EphB1-His, EphB2-His, and EphB4-His ectodomains; commercially available human EphrinB1-Fc (EB1), EphrinB2-Fc (EB2), and EphrinB3-Fc (EB3) ectodomain proteins; purchased
Sequence (P29323 19-543 limits assumed): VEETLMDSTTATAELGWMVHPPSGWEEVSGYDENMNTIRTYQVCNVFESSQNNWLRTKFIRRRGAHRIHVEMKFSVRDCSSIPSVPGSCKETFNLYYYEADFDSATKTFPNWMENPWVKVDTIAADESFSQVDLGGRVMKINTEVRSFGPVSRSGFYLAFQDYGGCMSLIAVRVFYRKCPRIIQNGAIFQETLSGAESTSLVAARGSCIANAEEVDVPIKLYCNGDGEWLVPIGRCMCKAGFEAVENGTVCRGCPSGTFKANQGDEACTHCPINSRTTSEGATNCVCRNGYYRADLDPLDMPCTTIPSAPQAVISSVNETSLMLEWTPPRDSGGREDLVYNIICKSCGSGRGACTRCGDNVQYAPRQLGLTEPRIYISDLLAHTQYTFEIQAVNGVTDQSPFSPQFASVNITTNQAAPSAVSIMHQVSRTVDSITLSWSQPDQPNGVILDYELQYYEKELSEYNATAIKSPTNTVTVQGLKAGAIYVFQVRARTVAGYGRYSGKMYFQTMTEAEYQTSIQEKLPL
Test: Octet 80 sec association/500 sec dissociation, immobilized human EphrinB2-Fc binding to soluble human EphB2-His
Settings: EphB2; Full AUC; read-out: Absolute IC50
property.measured: IC50 (nM)

[[record]]
smiles_input = "Oc1c(Br)cc(CN2CCN(c3ccc(Br)cc3)CC2)c2cccnc12"
property_measured = "IC50"
unit_label = "nM"
data_value = 200

[[record]]
smiles_input = "Oc1c(I)cc(CN2CCOCC2)c2cccnc12"
property_measured = "IC50"
unit_label = "nM"
data_value = 240


###

molecular target: EphB2-His-Fc / EB2-His (Mus musculus); construct: a dual-tagged EphB2-His-Fc ectodomain protein; mouse EB2-His residues 18-232; Sino Biologicals (EphrinB-His); experiment: pulldown EB2-His to EphB2-His-Fc; conditions: pulldown, EphB2
Sequence (P54763 19-543 limits assumed): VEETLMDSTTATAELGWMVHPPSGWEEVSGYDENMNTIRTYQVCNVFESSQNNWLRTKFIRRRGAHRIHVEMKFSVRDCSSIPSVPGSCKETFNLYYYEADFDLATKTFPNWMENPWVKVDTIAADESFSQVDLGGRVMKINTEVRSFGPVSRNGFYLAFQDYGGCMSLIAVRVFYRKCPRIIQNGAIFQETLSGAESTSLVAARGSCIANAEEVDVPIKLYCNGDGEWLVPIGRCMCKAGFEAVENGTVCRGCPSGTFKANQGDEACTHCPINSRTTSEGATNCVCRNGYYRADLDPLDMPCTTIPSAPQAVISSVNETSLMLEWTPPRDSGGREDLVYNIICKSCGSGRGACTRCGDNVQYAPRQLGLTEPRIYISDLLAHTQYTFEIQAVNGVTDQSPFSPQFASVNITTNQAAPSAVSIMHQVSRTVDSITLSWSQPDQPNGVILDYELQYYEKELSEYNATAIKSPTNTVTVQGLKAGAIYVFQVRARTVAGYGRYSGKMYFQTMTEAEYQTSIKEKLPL
property.measured: IC50

[[record]]
smiles_input = "Oc1c(Br)cc(CN2CCOCC2)c2cccnc12"
data_value = "~10 µM"


###

biological target: EphB4-EphrinB2 (Mus musculus, UniProt P54761); construct: biosensor immobilized rodent EphB1-Fc and EphB4-Fc ectodomain proteins; mouse EB2-His residues 18-232; purchased R&D Systems (EphB-Fc); Sino Biologicals (EphrinB-His); test: Octet RED384, immobilized mouse EphB4-Fc binding to mouse EB2-His; settings: mEphB4-mEphrinB2; immobilized mouse EphB4; 50 nM soluble mouse EphrinB2; association; relative; read-out: Relative Association IC50
Sequence (P54761 16-539 limits assumed): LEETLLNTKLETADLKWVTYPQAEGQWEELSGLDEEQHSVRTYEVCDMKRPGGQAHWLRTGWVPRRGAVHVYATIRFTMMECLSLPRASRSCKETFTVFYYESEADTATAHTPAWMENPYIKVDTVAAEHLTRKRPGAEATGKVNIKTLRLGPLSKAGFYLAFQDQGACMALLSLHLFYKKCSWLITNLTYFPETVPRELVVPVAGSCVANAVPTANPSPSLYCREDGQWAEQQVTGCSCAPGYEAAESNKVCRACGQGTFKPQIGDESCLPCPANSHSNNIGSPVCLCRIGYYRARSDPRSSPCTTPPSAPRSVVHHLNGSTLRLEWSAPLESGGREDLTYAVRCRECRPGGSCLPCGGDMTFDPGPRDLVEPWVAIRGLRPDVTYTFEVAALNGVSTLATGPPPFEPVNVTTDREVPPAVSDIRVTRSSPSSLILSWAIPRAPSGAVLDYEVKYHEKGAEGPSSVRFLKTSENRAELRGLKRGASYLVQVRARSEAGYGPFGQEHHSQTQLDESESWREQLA
pIC50: −log10 of the molar value.
Below, each of the compounds is paired with its reported pIC50 value.
property.measured: pIC50

[[record]]
smiles_input = "Oc1c(Br)cc(CN2CCOCC2)c2cccnc12"
lt_gt_eq = "="
data_value = 6.66

[[record]]
smiles_input = "O=S1(=O)CCN(Cc2ccc(O)c3ncccc23)CC1"
lt_gt_eq = "<"
data_value = 5.00

[[record]]
smiles_input = "Oc1ccc(CN2CCN(Cc3ccc(C(F)(F)F)cc3)CC2)c2cccnc12"
lt_gt_eq = "="
data_value = 5.08

[[record]]
smiles_input = "Oc1ccc(CN2CCOCC2)c2cccnc12"
lt_gt_eq = "="
data_value = 4.00

[[record]]
smiles_input = "Oc1c(Cl)cc(CN2CCOCC2)c2cccnc12"
lt_gt_eq = "="
data_value = 5.50

[[record]]
smiles_input = "O=[N+]([O-])c1cc(CN2CCOCC2)c2cccnc2c1O"
lt_gt_eq = "="
data_value = 5.20

